details: in DMF, 323.15 K
ENDPOINT: solubility (mole fraction)
Quick one: just the number, no unit, thanks!

So what does the record say about solubility (mole fraction) for CC(C)(C)OC(=O)N[C@@H](CCCN=C(N)N[N+](=O)[O-])C(=O)O ?
0.62

###

details: in sec-butanol, 308.15 K
ENDPOINT: solubility (mole fraction)

Item under review: CC(C)(C)OC(=O)N[C@@H](CCCN=C(N)N[N+](=O)[O-])C(=O)O . Reported solubility (mole fraction)?
0.0138

###

details: in ethyl acetate, 288.15 K
ENDPOINT: solubility (mole fraction)
In your answer, state the number alone without any accompanying words.

Item under review: CC(C)(C)OC(=O)N[C@@H](CCCN=C(N)N[N+](=O)[O-])C(=O)O . Reported solubility (mole fraction)?
0.000846
